These measurements were taken from ChEMBL document CHEMBL1201862.

Give EC50 for every item shown.
- METHOD NOTES: Luminescence Cell-Based Dose Response HTS to Identify Activators of Luciferase Translation or Activity in H4 […] Cells. [Related pubchem assays: 1829 (Project Summary), 1814 (Primary HTS)]
- Format: functional
Activity calls are given as the source filed them.

Query :: Fill in the blank: the reported EC50 of O=C(c1cccc(COc2ccc(Cl)cc2Cl)c1)N1CCN(c2ccccn2)CC1 is ____.
Result :: < 0.1 µM (inconclusive)

Query :: Check O=c1c2c3nc4ccccc4nc3n(/N=C/c3ccccn3)c2ncn1-c1ccccc1 too.
Result :: 13 µM (active)

Query :: Consider next the compound CCOC(=O)c1cnn(-c2ccc(C(F)(F)F)cn2)c1N in the same way.
Result :: > 120 µM (not active)

Query :: And then Cc1ccccc1NC(=O)C1Cc2ccccc2CN1C(=O)c1ccco1 (stereo unspecified) , what is it?
Result :: 39.3 µM (active)

Query :: Same read-out for C=CCNc1nnc(Sc2ncccc2[N+](=O)[O-])s1 ?
Result :: 10.3 µM (inconclusive)

Query :: Let us now turn to N=C(NOC(=O)c1ccco1)c1ccccc1
Result :: 47.4 µM (active)

----------
So I've got a bunch of molecules here, and I need their IC50 values.
- SYSTEM NAME: Nonstructural protein 1 (Influenza A virus, UniProt Q194T2)
- Sequence (Q194T2 whole entry): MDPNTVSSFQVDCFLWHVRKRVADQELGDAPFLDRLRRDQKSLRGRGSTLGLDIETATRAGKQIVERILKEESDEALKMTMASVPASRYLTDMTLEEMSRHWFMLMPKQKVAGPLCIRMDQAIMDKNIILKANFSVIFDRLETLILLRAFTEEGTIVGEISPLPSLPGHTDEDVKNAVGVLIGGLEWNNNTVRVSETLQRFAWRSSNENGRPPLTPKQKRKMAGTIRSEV
- Format: functional, Influenza A virus (A/California/07/2009(H1N1))
Calls of active or inactive are those of the source.

Query :: Entry C/C(=N\NC(=O)c1cc(Br)ccc1O)c1ccccn1 has what IC50?
Result :: 30.4 µM (active)

Query :: Can you handle COc1cc(C=NO)nc(-c2ccccn2)c1 next?
Result :: 2.51 µM (active)

Query :: What would you report for O=C(CSc1ccc2nnc(-c3ccccn3)n2n1)Nc1nccs1 ?
Result :: 43.5 µM (active)

Query :: Also, COc1ccc(Nc2ccc(S(=O)(=O)N3CCCCCC3)cc2[N+](=O)[O-])cc1 please.
Result :: 45.6 µM (active)

Query :: Item: CC(=NNc1nc2ccccc2o1)c1ncccn1
Result :: 0.739 µM (active)

Query :: Further, for CN(C)c1ccc(/C=c2\c3ccccc3n3c2cc(-c2ccccc2)[n+]3C)cc1 ?
Result :: 6.8 µM (active)

Query :: And then Cc1n[nH]c(O)c1C(c1c(C)n[nH]c1O)c1cn(Cc2ccc(F)cc2)c2ccccc12 , what is it?
Result :: 47.2 µM (active)

----------
Give EC50 for every item shown.
- Tested on: Streptococcus
- METHOD NOTES: GAS UMAA2166 growth inhibition – luminescence, BacTiterGlo, counter-screen for streptokinase expression inhibitor project, dose response (AID 1915);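 also: potency for reduction of bacterial viability or growth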
- Assay type: functional, organism-based
Active and inactive are the calls of the source.

Query :: Suppose we examine the molecule COc1cc(NC(=O)CSc2ncnc3sc4c(c23)CCCC4)c(C(=O)O)cc1OC ; what EC50 value has been reported?
Result :: > 150 µM (not active)

Query :: Same again, this time with Cc1[nH]n(-c2ccccc2)c(=O)c1/C=C1/C(=O)NN(c2ccc(F)c(Cl)c2)C1=O
Result :: 7.24 µM (active)

Query :: Try CCCOc1cc(N(CC)CC)ccc1/C=C(/C#N)c1nc2cc(C)ccc2[nH]1 next.
Result :: > 150 µM (not active)

Query :: Note, next up: Cc1cc(/C=C2/C(=N)N3C(=NC2=O)SN=C3S(C)(=O)=O)c(C)n1-c1ccc(F)cc1
Result :: > 150 µM (not active)

Query :: Another molecule to check: COc1ccc(Sc2ccc(NC(=O)c3ccccc3Cl)cc2C#N)cc1
Result :: > 150 µM (not active)

Query :: Same lookup for COc1cc(/C=C/c2ccc3cccc(O)c3n2)cc(OC)c1OC , please.
Result :: 15.6 µM (active)

Query :: What do you get for CN(C)c1ccc(O)c2c1CC1CC3C(N(C)C)C(=O)C(C(N)=O)=C(O)[C@@]3(O)C(=O)C1=C2O (stereo partly drawn) ?
Result :: 0.184 µM (active)

Query :: Try O=C(O)c1ccc(S(=O)(=O)/N=C2\C=C(Nc3ccccc3F)C(=O)c3ccccc32)cc1 next.
Result :: 4.05 µM (active)

----------
- SYSTEM NAME: Kappa-type opioid receptor (Homo sapiens)
- Sequence (P41145 whole entry): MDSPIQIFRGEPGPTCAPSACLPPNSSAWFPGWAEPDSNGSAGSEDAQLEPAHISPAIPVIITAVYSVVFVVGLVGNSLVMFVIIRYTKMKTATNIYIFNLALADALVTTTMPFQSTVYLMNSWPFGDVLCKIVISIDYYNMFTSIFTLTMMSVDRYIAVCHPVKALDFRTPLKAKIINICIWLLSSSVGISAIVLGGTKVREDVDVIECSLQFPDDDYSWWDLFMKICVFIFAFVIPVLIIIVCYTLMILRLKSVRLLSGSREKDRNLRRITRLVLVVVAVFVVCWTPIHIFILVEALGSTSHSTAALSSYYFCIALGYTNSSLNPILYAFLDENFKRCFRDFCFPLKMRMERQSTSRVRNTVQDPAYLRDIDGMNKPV
- Format: functional
pIC50: −log10 of the molar value.
PROPERTY NAME: pIC50

Query :: Please look up its pIC50: COc1ccc(-c2csc(Cc3nc(O)cs3)n2)cc1
Result :: < 4.49

Query :: // repeat for C/C(=N\NC(=O)c1cc(Br)ccc1O)c1ccccn1 and report
Result :: < 4.49

----------
- METHOD NOTES: Luminescence Cell-Based Dose Retest to Confirm Inhibitors of Cancer Stem Cells. [Related pubchem assays (depositor defined):AID2717, AID2721]
- Format: functional
- CONDITION: Homo sapiens
Active and inactive are the calls of the source.
Give AC50 for every item shown.

Query :: Form field: reported AC50 of CC1=C(/C=C/C(C)=C/C=C/C(C)=C/C(=O)Nc2ccc(O)cc2)C(C)(C)CCC1 [FENRETINIDE]
Result :: 1.04 µM (active)

Query :: Now the compound Cc1ccc(C(=O)NC2c3ccccc3-c3ccccc32)cc1
Result :: 0.448 µM (active)

Query :: Cc1nn(Cc2ccc(Cl)c(Cl)c2)c(C)c1NC(=O)c1cc(-c2ccc3c(c2)OCO3)on1 ?
Result :: 0.471 µM (active)

Query :: Would you kindly repeat that for O=C(C1CCCN(S(=O)(=O)c2ccc([N+](=O)[O-])cc2)C1)N1CCCCC1 (stereo not drawn) ?
Result :: > 195 µM (inactive)

Query :: Queued: CC(=O)N(C)c1ccc(OCC(O)Cn2c3ccc(Cl)cc3c3cc(Cl)ccc32)cc1 (stereo not drawn)
Result :: 1.59 µM (active)

Query :: Again, but for COc1cc2c(cc1OC)C(c1ccc(-c3ccc(Cl)c(Cl)c3)o1)=NCC2
Result :: 4.34 µM (active)

Query :: Same for O=C(CNC(=O)C(c1ccccc1)c1ccccc1)N/N=C/c1ccc(O)cc1O
Result :: 2.59 µM (active)

Query :: How about Cc1ccc(Nc2nc(N)nc(CSC(=S)N3CCN(c4ccccc4)CC3)n2)cc1 ?
Result :: 13.4 µM (active)

----------
- SYSTEM NAME: UniProt:P63073
- Sequence (P63073 whole entry): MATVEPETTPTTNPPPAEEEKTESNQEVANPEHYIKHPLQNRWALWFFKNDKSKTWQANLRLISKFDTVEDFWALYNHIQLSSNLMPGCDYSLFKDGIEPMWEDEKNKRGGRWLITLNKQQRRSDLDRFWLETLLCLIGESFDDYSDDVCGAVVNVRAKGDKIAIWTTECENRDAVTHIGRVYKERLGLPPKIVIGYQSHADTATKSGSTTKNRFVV
- METHOD NOTES: blockers of eIF4G binding by eIF4E – biochemical, TR-FRET, dose response (AID 855);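 also: potency for disrupting eIF4E binding to eIF4GI seen as loss of FRET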
- Assay type: functional
Activity calls are given as the source filed them.
The reply should name one outcome from class 1 (active), class 0 (inactive)

Query :: Test call for this compound, please: CCCN1CCC(=NNC(=O)c2ccc(Br)o2)CC1
Result :: class 0

Query :: Quick one: O=C(O)c1cccc(N2C(=O)/C(=C/c3ccc(SCc4ccc(Cl)cc4)o3)SC2=S)c1
Result :: class 1

Query :: Also check COc1ccc(OC)c(Nc2nc(=O)c3cccnc3s2)c1
Result :: class 0

Query :: Same read-out for O=C(O)c1cc(-c2ccco2)nn1-c1ccc(Cl)cc1 ?
Result :: class 0

Query :: Same question, Cc1ccsc1/C=N/n1c(S)nnc1-c1cccnc1 this time
Result :: class 0

Query :: Another compound to look at: CCCCC[C@H](O)/C=C/[C@@H]1[C@@H](C/C=C\CCCC(=O)OC)[C@@H](O)C[C@H]1O
Result :: class 1

Query :: What do you have for Cc1cc2nc3c(=O)[nH]c(=O)[nH]c3nc2c([N+](=O)[O-])c1N ?
Result :: class 0

----------
- SYSTEM NAME: Paired box protein Pax-8 (Homo sapiens, UniProt Q06710)
- Sequence (Q06710 whole entry): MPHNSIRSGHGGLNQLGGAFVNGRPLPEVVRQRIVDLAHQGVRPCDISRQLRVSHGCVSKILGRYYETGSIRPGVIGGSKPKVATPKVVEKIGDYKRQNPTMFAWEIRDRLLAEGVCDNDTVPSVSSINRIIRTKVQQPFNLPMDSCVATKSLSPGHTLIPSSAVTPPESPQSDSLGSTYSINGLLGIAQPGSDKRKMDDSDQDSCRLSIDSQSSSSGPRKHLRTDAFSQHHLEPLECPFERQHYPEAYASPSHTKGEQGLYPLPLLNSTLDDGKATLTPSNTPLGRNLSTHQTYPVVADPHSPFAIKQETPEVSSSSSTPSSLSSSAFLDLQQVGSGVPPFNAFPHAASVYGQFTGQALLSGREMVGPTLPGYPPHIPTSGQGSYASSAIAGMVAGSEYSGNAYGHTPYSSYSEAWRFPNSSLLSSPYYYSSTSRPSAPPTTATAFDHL
- METHOD NOTES: PAX8 transcriptional activity inhibition in RMG-I – RMG-I cells, luciferase, cherry-pick, dose response (AID 687027);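 also: luciferase reporter driven by Pax8 target thyroperoxidase promoter measured by SteadyGlo luminescence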
- Type: functional, cell-based
Active and inactive are the calls of the source.
PROPERTY NAME: AC50

Query :: Request the reported AC50 associated with Cc1ccsc1/C=N/Nc1cccc(C(=O)O)c1
Result :: 4.41 µM (active)

Query :: Then C(=C\c1ccc([C@H]2[C@@H]3CN(Cc4ccc5c(c4)OCO5)C[C@H]2N3)cc1)/c1ccccc1 ?
Result :: 20.2 µM (active)

Query :: C[C@@H]1CCCCO[C@@H](CN(C)C(=O)NC2CCCCC2)[C@H](C)CN([C@H](C)CO)C(=O)c2cc(NS(=O)(=O)c3ccc(Cl)cc3)ccc2O1 , same question.
Result :: 7.57 µM (active)

Query :: What do you get for C[C@H]1CCCCO[C@H](CN(C)C(=O)Nc2ccc(C(F)(F)F)cc2)[C@@H](C)CN([C@@H](C)CO)C(=O)c2cc(NC(=O)CCC(F)(F)F)ccc2O1 ?
Result :: 6.57 µM (active)

Query :: Thanks! And O=C(Nc1ccc([N+](=O)[O-])cn1)c1cc(-c2cccc(Br)c2)nc2ccccc12 ?
Result :: 45.6 µM (active)

Query :: Entry C[C@@H]1CN([C@H](C)CO)C(=O)c2cc(NC(=O)NC3CCCCC3)ccc2O[C@@H](C)CCCCO[C@H]1CN(C)Cc1ccc(C(F)(F)F)cc1 please
Result :: 6.85 µM (active)

Query :: Query C=CCC[C@H](Cc1ccc(F)cc1)C(=O)OC[C@H](Cc1c[nH]c2ccccc12)NC(=O)[C@H](CC=C)CC(=O)N(CCO)Cc1ccccc1 next
Result :: 12.9 µM (active)

Query :: Queued: Cc1ccc(S(=O)(=O)Nc2ccc3c(c2)C(=O)N([C@H](C)CO)C[C@@H](C)[C@H](CN(C)Cc2ccc(C(F)(F)F)cc2)OCCCC[C@@H](C)O3)cc1
Result :: 8.45 µM (active)

Query :: Entry C[C@@H]1CCCCO[C@H](CN(C)Cc2ccc(Cl)c(Cl)c2)[C@@H](C)CN([C@@H](C)CO)C(=O)c2cc(NS(=O)(=O)c3ccc(Cl)cc3)ccc2O1 please
Result :: 10.2 µM (active)

Query :: What do we get for COc1ccc(-c2ccc3c(c2)[C@@H]2[C@@H](CCN2C(=O)C2CCCCC2)[C@H](CO)N3C)cc1 ?
Result :: 6.75 µM (active)

Query :: Another: C[C@@H]1CN([C@H](C)CO)C(=O)c2cc(NC(=O)Nc3ccc(F)cc3)ccc2O[C@@H](C)CCCCO[C@H]1CN(C)S(=O)(=O)c1ccc(F)cc1
Result :: 8.62 µM (active)

Query :: Another: C[C@H]1CN([C@@H](C)CO)S(=O)(=O)c2ccc(C#Cc3ccncc3)cc2O[C@H]1CN(C)C(=O)C1CCCCC1
Result :: 2.68 µM (active)

Query :: And for COc1ccc(S(=O)(=O)N(C)C[C@@H]2OCCCC[C@H](C)Oc3ccc(NS(=O)(=O)c4ccc(Cl)cc4)cc3C(=O)N([C@H](C)CO)C[C@@H]2C)cc1 ?
Result :: 4.8 µM (active)

Query :: Now the same for Cc1cccc(S(=O)(=O)N2CCCCN3[C@H](CO)[C@H](c4ccc(C#CC(C)C)cc4)[C@H]3C2)c1
Result :: 9.99 µM (active)
